molecular target: BCL-XL (Homo sapiens); test: HTRF BCL-XL/BAK assay (Cisbio); details: recombinant human Tag1-BCL-XL 2 nM, Tag2-BAK 5 nM
Sequence (Q07817 whole entry): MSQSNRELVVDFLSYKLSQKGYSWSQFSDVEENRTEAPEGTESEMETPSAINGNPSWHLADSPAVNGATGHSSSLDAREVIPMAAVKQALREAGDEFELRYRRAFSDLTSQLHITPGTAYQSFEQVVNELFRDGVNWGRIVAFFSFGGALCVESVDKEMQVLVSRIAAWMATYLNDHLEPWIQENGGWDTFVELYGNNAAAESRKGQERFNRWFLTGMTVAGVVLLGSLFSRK
Listing: IC50 of selected molecules
TEST_READOUT: IC50

MOLECULE | ASSAY_RESULT
Cc1ccc(S(=O)(=O)N2CCCC(N3CCN(c4ccc(C(=O)NS(=O)(=O)c5ccc(NCC6CCOCC6)c([N+](=O)[O-])c5)c(Oc5cnc6[nH]ccc6c5)c4)CC3)c3ccccc32)cc1 (stereo not drawn) | 200 to 2000 nM
CC(C)(C)OC(=O)NCCN1CCC2(CC1)CC(CNc1ccc(S(=O)(=O)NC(=O)c3ccc(N4CCN([C@@H]5CCCCc6c(Cl)cccc65)CC4)cc3Oc3cnc4[nH]ccc4c3)cc1[N+](=O)[O-])C2 | 20 to 200 nM
O=C(NS(=O)(=O)c1ccc(NCC2CCOCC2)c([N+](=O)[O-])c1)c1ccc(N2CCN(C3CCCCc4ccc(Cl)cc43)CC2)cc1Oc1cnc2[nH]ccc2c1 (stereo not drawn) | > 2000 nM
CN1CCC(CNc2ccc(S(=O)(=O)NC(=O)c3ccc(N4CCN([C@@H]5CCCCc6c(Br)cccc65)CC4)cc3Oc3cnc4[nH]ccc4c3)cc2[N+](=O)[O-])CC1 | < 20 nM
O=C(NS(=O)(=O)c1ccc(NCC2CC3(CCN(CC4CC4)CC3)C2)c([N+](=O)[O-])c1)c1ccc(N2CCN([C@@H]3CCCCc4c(Cl)cccc43)CC2)cc1Oc1cnc2[nH]ccc2c1 | < 20 nM
CC(=O)NCCN1CCC2(CC1)CC(CNc1ccc(S(=O)(=O)NC(=O)c3ccc(N4CCN([C@@H]5CCCCc6c(Cl)cccc65)CC4)cc3Oc3cnc4[nH]ccc4c3)cc1[N+](=O)[O-])C2 | < 20 nM
CN1CCN(CCNc2ccc(S(=O)(=O)NC(=O)c3ccc(N4CCN(C5CCCCc6c(Cl)cccc65)CC4)cc3Oc3cnc4[nH]ccc4c3)cc2[N+](=O)[O-])CC1 (stereo not drawn) | < 20 nM
O=C(NS(=O)(=O)c1ccc(NCC2COC3OCCC23)c([N+](=O)[O-])c1)c1ccc(N2CCN(C3CCCCc4c(Cl)cccc43)CC2)cc1Oc1cnc2[nH]ccc2c1 (stereo not drawn) | 20 to 200 nM
O=C(NS(=O)(=O)c1ccc(NCCN2CCN(C3COC3)CC2)c([N+](=O)[O-])c1)c1ccc(N2CCN([C@@H]3CCCCc4c(Cl)cccc43)CC2)cc1Oc1cnc2[nH]ccc2c1 | 20 to 200 nM
CC(=O)Nc1ccc2c(c1)C(N1CCN(c3ccc(C(=O)NS(=O)(=O)c4ccc(NCC5CCOCC5)c([N+](=O)[O-])c4)c(Oc4cnc5[nH]ccc5c4)c3)CC1)CCCC2 (stereo not drawn) | 200 to 2000 nM
O=C(NS(=O)(=O)c1ccc(NCCN2CC3CC2CO3)c([N+](=O)[O-])c1)c1ccc(N2CCN(C3CCCCc4c(Cl)cccc43)CC2)cc1Oc1cnc2[nH]ccc2c1 (stereo not drawn) | < 20 nM
NCCN1CCC2(CC1)CC(CNc1ccc(S(=O)(=O)NC(=O)c3ccc(N4CCN([C@@H]5CCCCc6c(Cl)cccc65)CC4)cc3Oc3cnc4[nH]ccc4c3)cc1[N+](=O)[O-])C2 | < 20 nM
O=C(NS(=O)(=O)c1ccc(NCCN2CCC3(CC2)COC3)c([N+](=O)[O-])c1)c1ccc(N2CCN([C@@H]3CCCCc4c(Br)cc(F)cc43)CC2)cc1Oc1cnc2[nH]ccc2c1 | 20 to 200 nM
CC(C)[C@H](N)C(=O)N1CCC2(CC1)CC(CNc1ccc(S(=O)(=O)NC(=O)c3ccc(N4CCN([C@@H]5CCCCc6c(Cl)cccc65)CC4)cc3Oc3cnc4[nH]ccc4c3)cc1[N+](=O)[O-])C2 | < 20 nM
CCP(=O)(CC)c1cccc2c1CCCCC2N1CCN(c2ccc(C(=O)NS(=O)(=O)c3ccc(NCC4CCOCC4)c([N+](=O)[O-])c3)c(Oc3cnc4[nH]ccc4c3)c2)CC1 (stereo not drawn) | > 2000 nM
CS(=O)(=O)Nc1cccc2c1CCCCC2N1CCN(c2ccc(C(=O)NS(=O)(=O)c3ccc(NCC4CCOCC4)c([N+](=O)[O-])c3)c(Oc3cnc4[nH]ccc4c3)c2)CC1 (stereo not drawn) | > 2000 nM
O=C(NS(=O)(=O)c1ccc(NCC2CCn3ccnc3C2)c([N+](=O)[O-])c1)c1ccc(N2CCN(C3CCCCc4c(Cl)cccc43)CC2)cc1Oc1cnc2[nH]ccc2c1 (stereo not drawn) | < 20 nM
O=C(NS(=O)(=O)c1ccc(NCC2CC3(COC3)C2)c([N+](=O)[O-])c1)c1ccc(N2CCN(C3CCCCc4c(Cl)cccc43)CC2)cc1Oc1cnc2[nH]ccc2c1 (stereo not drawn) | 20 to 200 nM

Entry source: patent US20240239792A1
